assay: chemical genetic growth profiling, strain panel (AID 1159580);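 further: tested at 20 µM; growth read once vehicle control cultures reached saturation at 30 °C; lower values mean less growth of the strain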; settings: S. cerevisiae deletion strains, growth OD, locus YEL061C, strain CIN8, stronger effect = lower value
Out of some 5,500 compounds screened, about 2,000 (36%) were called active. Not shown: some 18% with an inconclusive outcome. The list shows a part of the results.
I'd appreciate it if you marked entries satisfied when normalized growth is lower than 1 and not satisfied when it is not.

substance.smiles: COc1ccc(/C=C2/C(=O)N(c3cccc(Cl)c3)N=C2C)cc1
qualitative.label: satisfied
--
substance.smiles: O=c1c(O)c(-c2ccccc2)oc2ccc3occc3c12
qualitative.label: satisfied
--
substance.smiles: CCOC(=O)c1c[nH]c2c(F)cccc2c1=O
qualitative.label: not satisfied
--
substance.smiles: CCOC(=O)c1cnc(SCC(=O)c2ccc(Cl)cc2Cl)[nH]1
qualitative.label: not satisfied
--
substance.smiles: Nc1ccc(Sc2cc(Cl)ccc2Cl)nc1
qualitative.label: satisfied
--
substance.smiles: FC(F)(F)c1cc(-c2ccco2)nc2cc(-c3ccco3)nn12
qualitative.label: satisfied

These entries and their values trace back to PubChem BioAssay AID1159580.
